- measurement target: CquiOBP1 (Culex quinquefasciatus)
- Sequence (Q8T6I2 entry or part of it): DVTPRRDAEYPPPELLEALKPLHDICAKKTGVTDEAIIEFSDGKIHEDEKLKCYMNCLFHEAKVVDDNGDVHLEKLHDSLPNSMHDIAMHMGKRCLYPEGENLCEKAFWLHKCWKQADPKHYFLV
- assay info: biochemical
- Assay type: binding
observable: Kd

>  <molecule>
CCOC(=O)Cc1ccccc1 [Ethyl 2-phenylacetate, ethyl 2-phenylacetate]

>  <endpoint value>
> 6.3 µM

$$$$
>  <molecule>
O=Cc1ccccc1

>  <endpoint value>
> 6.3 µM

$$$$
>  <molecule>
CC(C)[C@]12CC(=O)[C@H](C)[C@H]1C2

>  <endpoint value>
> 6.3 µM

$$$$
>  <molecule>
CC(=O)CCC=C(C)C

>  <endpoint value>
> 6.3 µM

$$$$

Next up:
Prompt line: For the molecule CCC(C)OC(=O)N1CCCCC1CCO (centres unmarked) , what Kd is on record?
Response line: 6.4 µM
